The reported numbers originate from patent US8735406B2.

# measured-on: FAAH (Rattus norvegicus, UniProt P97612)
# Construct: Preparation of Rat Brain Membranes Preparations (FAAH Enzyme Solution); from tissue; host or cells: rat cerebrum (brain membrane preparation)
# Sequence (P97612 1-579): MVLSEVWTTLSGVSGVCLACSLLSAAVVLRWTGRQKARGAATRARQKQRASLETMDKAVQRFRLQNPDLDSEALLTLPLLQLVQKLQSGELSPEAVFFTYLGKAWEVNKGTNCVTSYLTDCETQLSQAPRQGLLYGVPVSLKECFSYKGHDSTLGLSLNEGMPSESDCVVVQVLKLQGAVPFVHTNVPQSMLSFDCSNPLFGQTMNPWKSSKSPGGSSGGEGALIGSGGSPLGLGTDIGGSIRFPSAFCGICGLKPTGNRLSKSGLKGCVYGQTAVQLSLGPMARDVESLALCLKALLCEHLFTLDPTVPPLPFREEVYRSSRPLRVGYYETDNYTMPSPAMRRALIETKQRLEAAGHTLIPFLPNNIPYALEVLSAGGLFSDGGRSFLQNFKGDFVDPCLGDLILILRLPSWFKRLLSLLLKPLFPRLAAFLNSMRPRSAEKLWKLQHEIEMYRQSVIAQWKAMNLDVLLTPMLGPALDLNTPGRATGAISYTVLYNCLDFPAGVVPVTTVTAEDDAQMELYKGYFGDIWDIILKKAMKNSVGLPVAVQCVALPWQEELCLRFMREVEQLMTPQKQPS
# assay-info: Determination of FAAH inhibitory activity in rat (rat brain membrane preparations, [3H]-anandamide hydrolysis)
# Type: biochemical
# recorded-conditions: rat brain membrane preparations; test substance 0.1 nM to 1 μM; read-out: FAAH Inhibition IC50
quantity: pIC50
Quick note: pIC50 means taking -log10 of the concentration in moles per liter.

INSERT INTO measurements (molecule, number) VALUES
  ('CC(c1ccccc1)c1ncc2c(n1)n(C)c(=O)n2C(=O)N1CCCC1 (centres unmarked) [Example 273]', 7.33),
  ('Cc1cc(C)c(CCc2ncc3c(n2)n(C(=O)N2CCC2)c(=O)n3C)c(C)c1 [compound 566]', 8.00),
  ('CCOc1cc(F)cc(-c2ncc3c(n2)n(C)c(=O)n3C(=O)N2CCCC2)c1 [compound 193]', 7.38),
  ('CCCc1ccc(-c2ncc3c(n2)n(C)c(=O)n3C(=O)N2CCCC2)cc1 [compound 180]', 7.42),
  ('Cn1c(=O)n(C(=O)N2CCCC2)c2cnc(-c3cccnc3)nc21 [Example 205]', 8.30);

Asked: Fill blank: measured pIC50 of the molecule COc1cccc(-c2ncc3c(n2)n(C)c(=O)n3C(=O)N2CCN(CCc3ccccc3)CC2)c1 [Example 67] is ____.
Given back: 8.15
